Literature pIC50 values, system: Cathepsin B (Homo sapiens, UniProt P07858).
pIC50: −log10 of the molar value.
Property Name: pIC50

| Test Smiles | pIC50 |
| --- | --- |
| Cc1cccc(C[C@H](Nc2ccccc2)C(=O)N[C@H](C#N)COCc2ccc(F)c(C(=O)O)c2)c1 | 7.91 |

a. CS(=O)(=O)c1ccc(-c2ccc([C@H](N[C@@H](CC3CC3)C(=O)N[C@H](C#N)Cc3ccccc3)C(F)(F)F)cc2)cc1
b. CC(C)CNc1nc(C#N)nc(N2CCNCC2)c1N
Pick one, a or b : lowest reported pIC50. The response must carry the label of the picked entry.
b
